Reported pIC50 by item:
tested target: Mu-type opioid receptor (Homo sapiens, UniProt P35372)
Sequence (P35372 whole entry): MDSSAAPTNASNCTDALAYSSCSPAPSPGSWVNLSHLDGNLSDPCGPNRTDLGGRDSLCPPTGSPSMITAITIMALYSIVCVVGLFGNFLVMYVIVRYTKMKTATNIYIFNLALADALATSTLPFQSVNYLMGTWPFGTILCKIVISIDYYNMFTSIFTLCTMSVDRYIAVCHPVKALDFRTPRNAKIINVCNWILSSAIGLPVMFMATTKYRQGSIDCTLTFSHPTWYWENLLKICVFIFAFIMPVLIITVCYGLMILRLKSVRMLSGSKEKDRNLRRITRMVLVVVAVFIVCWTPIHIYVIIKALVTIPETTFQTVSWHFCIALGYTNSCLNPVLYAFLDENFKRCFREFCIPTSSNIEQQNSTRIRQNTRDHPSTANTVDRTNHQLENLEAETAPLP
protocol: biochemical
Description: In vitro binding affinity against cloned human Opioid receptor mu 1 expressed in HEK 293S cells
Lab note — pIC50 values are minus log10 of concentrations in M.

Example entries begin here.
>>> observed("COc1ccc2c(c1)[C@H]1c3cc(OC)ccc3[C@H](C2)N(CC2CC2)[C@@H]1C")
5.99
>>> observed("C[C@H]1N[C@@H]2Cc3ccccc3[C@H]1c1ccccc12")
6.19
>>> observed("C[C@@H]1[C@H]2c3cc(Nc4ccccc4)ccc3C[C@@H](c3ccc(Nc4ccccc4)cc32)N1C")
7.25

Give pIC50 for `Fc1ccc2c(c1)[C@H]1c3cc(F)ccc3[C@H](C2)N2CCC[C@@H]12`
6.99

Give pIC50 for `C[C@@H]1[C@H]2c3cc(Nc4ccccc4)ccc3C[C@@H](c3ccc(Nc4ccccc4)cc32)N1CC1CC1`
7.09

Give pIC50 for `C[C@@H]1[C@H]2c3cc(O)ccc3C[C@@H](c3ccc(O)cc32)N1C`
7.80

Give pIC50 for `C[C@@H]1[C@H]2c3cc(O)ccc3C[C@@H](c3ccc(O)cc32)N1CC1CC1`
8.19

Give pIC50 for `C[C@@H]1[C@H]2c3ccccc3C[C@@H](c3ccccc32)N1CC1CC1`
5.97

Give pIC50 for `CN1[C@@H]2Cc3ccccc3[C@@H](c3ccccc32)[C@@H]1Cc1ccccc1`
5.98

Give pIC50 for `C[C@@H]1[C@H]2c3cc(Br)ccc3C[C@@H](c3ccc(Br)cc32)N1C`
6.44

Give pIC50 for `Oc1ccc2c(c1)[C@H]1c3cc(O)ccc3[C@H](C2)N2CCC[C@@H]12`
6.89

Give pIC50 for `c1ccc2c(c1)C[C@@H]1c3ccccc3[C@H]2[C@@H]2CCCCN12`
6.41

Give pIC50 for `C[C@H]1[C@H]2c3ccccc3C[C@H](c3ccccc32)N1C`
6.21

Give pIC50 for `C[C@@H]1[C@H]2c3cc(NCc4ccccc4)ccc3C[C@@H](c3ccc(NCc4ccccc4)cc32)N1CC1CC1`
8.15

Give pIC50 for `CC(C)C[C@H]1[C@H]2c3ccccc3C[C@H](c3ccccc32)N1C`
6.00

---

tested target: Mu-type opioid receptor (Homo sapiens)
protocol: biochemical
Assay type: cell-based, HEK293
pIC50: −log10 of the molar value.
Kindly return MET if reported pIC50 is no lower than 6; return NOT MET if it is lower.

>>> class_name("C[C@@H]1[C@H]2c3cc(Br)ccc3C[C@@H](c3ccc(Br)cc32)N1CC1CC1")
"NOT MET"
>>> class_name("CC(=O)Oc1ccc2c(c1)[C@H]1c3cc(OC(C)=O)ccc3[C@H](C2)N(C)[C@@H]1C")
"MET"

Evaluate `C[C@@H]1[C@H]2c3cc(NCc4ccccc4)ccc3C[C@@H](c3ccc(NCc4ccccc4)cc32)N1C` : pIC50 at minimum 6?
MET

Evaluate `C=CCN1[C@H](C)[C@H]2c3ccccc3C[C@H]1c1ccccc12` : pIC50 at minimum 6?
NOT MET

---

tested target: Delta-type opioid receptor (Homo sapiens)
protocol: In vitro binding affinity against cloned human Opioid receptor delta 1 expressed in HEK 293S cells
Assay type: cell-based, HEK293
pIC50: −log10 of the molar value.
metric: pIC50

>>> observed("COc1cc2c(cc1OC)[C@H]1c3cc(OC)c(OC)cc3[C@H](C2)N(C)[C@@H]1C")
"< 5.00"
>>> observed("C[C@@H]1[C@H]2c3cc(Br)ccc3C[C@@H](c3ccc(Br)cc32)N1CC1CC1")
"< 5.00"
>>> observed("COc1ccc2c(c1)[C@H]1c3cc(OC)ccc3[C@H](C2)N(C)[C@@H]1C")
"< 5.00"
>>> observed("CC(=O)Oc1ccc2c(c1)[C@H]1c3cc(OC(C)=O)ccc3[C@H](C2)N(C)[C@@H]1C")
"< 5.33"
>>> observed("C[C@@H]1[C@H]2c3ccccc3C[C@@H](c3ccccc32)N1C")
"< 5.00"
>>> observed("COc1cc2c(cc1OC)[C@@H]1c3cc(OC)c(OC)cc3[C@@H](C2)N(C)[C@H]1C")
"< 5.24"

Give pIC50 for `c1ccc2c(c1)C[C@@H]1c3ccccc3[C@H]2[C@@H]2CCCCN12`
< 5.00

Give pIC50 for `c1ccc2c(c1)C[C@H]1c3ccccc3[C@H]2[C@@H]2CCCN12`
< 5.11

---

tested target: Kappa-type opioid receptor (Homo sapiens, UniProt P41145)
Sequence (P41145 whole entry): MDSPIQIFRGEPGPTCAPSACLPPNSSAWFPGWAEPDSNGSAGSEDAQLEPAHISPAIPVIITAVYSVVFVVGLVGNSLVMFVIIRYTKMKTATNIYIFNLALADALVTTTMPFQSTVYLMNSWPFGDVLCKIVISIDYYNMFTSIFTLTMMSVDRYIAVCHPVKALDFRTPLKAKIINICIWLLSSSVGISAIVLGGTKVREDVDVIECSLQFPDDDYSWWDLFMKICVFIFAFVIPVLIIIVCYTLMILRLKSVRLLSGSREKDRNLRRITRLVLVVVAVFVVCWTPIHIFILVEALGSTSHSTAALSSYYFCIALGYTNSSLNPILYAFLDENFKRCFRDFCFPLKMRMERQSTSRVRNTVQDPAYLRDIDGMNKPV
protocol: biochemical
Description: In vitro binding affinity against cloned human Opioid receptor kappa 1 expressed in HEK 293S cells
Reported IC50 by item:

Example entries begin here.
>>> observed("C[C@H]1[C@H]2c3ccccc3C[C@H](c3ccccc32)N1C")
"> 10 µM"
>>> observed("C[C@@H]1[C@H]2c3ccccc3C[C@@H](c3ccccc32)N1Cc1ccccc1")
"> 5.8 µM"
>>> observed("CC(=O)Oc1ccc2c(c1)[C@H]1c3cc(OC(C)=O)ccc3[C@H](C2)N2CCC[C@@H]12")
"> 6 µM"
>>> observed("C[C@H]1N[C@@H]2Cc3ccccc3[C@H]1c1ccccc12")
"> 10 µM"
>>> observed("C[C@@H]1[C@H]2c3ccccc3C[C@@H](c3ccccc32)N1CC1CC1")
"> 10 µM"

Give IC50 for `COc1ccc2c(c1)[C@H]1c3cc(OC)ccc3[C@H](C2)N(C)[C@@H]1C`
> 10 µM

Give IC50 for `CC(=O)Oc1ccc2c(c1)[C@H]1c3cc(OC(C)=O)ccc3[C@H](C2)N(C)[C@@H]1C`
> 9.5 µM

Give IC50 for `CC(=O)N1[C@H](C)[C@H]2c3ccccc3C[C@H]1c1ccccc12`
> 10 µM

Give IC50 for `Fc1ccc2c(c1)[C@H]1c3cc(F)ccc3[C@H](C2)N2CCC[C@@H]12`
> 6.4 µM

Give IC50 for `C[C@@H]1[C@H]2c3cc(N4CCN(C)CC4)ccc3C[C@@H](c3ccc(N4CCN(C)CC4)cc32)N1C`
3.2 µM

Give IC50 for `COc1cc2c(cc1OC)[C@H]1c3cc(OC)c(OC)cc3[C@H](C2)N(C)[C@@H]1C`
> 10 µM

Give IC50 for `CN1[C@@H]2Cc3ccccc3[C@@H](c3ccccc32)[C@@H]1CCCO`
> 10 µM

Give IC50 for `c1ccc2c(c1)C[C@@H]1c3ccccc3[C@H]2[C@@H]2CCCCN12`
7.4 µM

Give IC50 for `C[C@@H]1[C@H]2c3cc(Nc4ccccc4)ccc3C[C@@H](c3ccc(Nc4ccccc4)cc32)N1CC1CC1`
1.2 µM

Give IC50 for `Brc1ccc2c(c1)[C@H]1c3cc(Br)ccc3[C@H](C2)N2CCC[C@@H]12`
7.4 µM

Give IC50 for `C[C@@H]1[C@H]2c3cc(O)ccc3C[C@@H](c3ccc(O)cc32)N1CC1CC1`
0.204 µM

Give IC50 for `C[C@@H]1[C@H]2c3cc(NCc4ccccc4)ccc3C[C@@H](c3ccc(NCc4ccccc4)cc32)N1C`
0.64 µM

Give IC50 for `C=CCN1[C@H](C)[C@H]2c3ccccc3C[C@H]1c1ccccc12`
> 4 µM

Give IC50 for `C[C@@H]1[C@H]2c3ccccc3C[C@@H](c3ccccc32)N1C`
> 75 µM

Give IC50 for `CC(C)[C@H]1[C@H]2c3ccccc3C[C@H](c3ccccc32)N1C`
3.41 µM

Give IC50 for `COc1cc2c(cc1OC)[C@@H]1c3cc(OC)c(OC)cc3[C@@H](C2)N(C)[C@H]1C`
> 10 µM

Give IC50 for `CC(=O)Oc1ccc2c(c1)[C@H]1c3cc(OC(C)=O)ccc3[C@H](C2)N(CC2CC2)[C@@H]1C`
2.02 µM

Give IC50 for `COc1ccc2c(c1)[C@H]1c3cc(OC)ccc3[C@H](C2)N2CCC[C@@H]12`
> 10 µM

---

Reported pIC50 by item:
tested target: Delta-type opioid receptor (Homo sapiens, UniProt P41143)
Sequence (P41143 whole entry): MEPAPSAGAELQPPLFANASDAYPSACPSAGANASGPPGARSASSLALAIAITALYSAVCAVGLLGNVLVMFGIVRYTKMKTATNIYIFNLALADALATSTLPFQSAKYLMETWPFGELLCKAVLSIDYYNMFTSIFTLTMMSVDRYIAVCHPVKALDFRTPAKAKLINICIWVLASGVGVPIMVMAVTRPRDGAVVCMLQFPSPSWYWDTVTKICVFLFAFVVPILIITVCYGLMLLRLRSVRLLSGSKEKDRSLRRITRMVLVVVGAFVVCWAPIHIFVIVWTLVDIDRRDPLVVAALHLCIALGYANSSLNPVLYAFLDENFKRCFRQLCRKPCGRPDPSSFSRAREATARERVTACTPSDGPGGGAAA
protocol: In vitro binding affinity against cloned human Opioid receptor delta 1 expressed in HEK 293S cells
pIC50: −log10 of the molar value.

>>> observed("CC(=O)N1[C@H](C)[C@H]2c3ccccc3C[C@H]1c1ccccc12")
"< 5.00"
>>> observed("C[C@@H]1[C@H]2c3ccccc3C[C@@H](c3ccccc32)N1Cc1ccccc1")
"< 5.06"

Give pIC50 for `C=CCN1[C@H](C)[C@H]2c3ccccc3C[C@H]1c1ccccc12`
< 5.01

Give pIC50 for `CC(C)[C@H]1[C@H]2c3ccccc3C[C@H](c3ccccc32)N1C`
< 5.00

Give pIC50 for `CC(C)C[C@H]1[C@H]2c3ccccc3C[C@H](c3ccccc32)N1C`
< 5.06

---

tested target: Mu-type opioid receptor (Homo sapiens)
protocol: biochemical
metric: IC50

Example entries begin here.
>>> observed("C[C@@H]1[C@H]2c3ccccc3C[C@@H](c3ccccc32)N1Cc1ccccc1")
"> 10 µM"
>>> observed("COc1cc2c(cc1OC)[C@H]1c3cc(OC)c(OC)cc3[C@H](C2)N(C)[C@@H]1C")
"> 10 µM"

Kindly consider the entry below.
Give IC50 for `CC(=O)N1[C@H](C)[C@H]2c3ccccc3C[C@H]1c1ccccc12`
> 9.5 µM
